Target: human NTCP (Homo sapiens)
Sequence (Q14973 whole entry): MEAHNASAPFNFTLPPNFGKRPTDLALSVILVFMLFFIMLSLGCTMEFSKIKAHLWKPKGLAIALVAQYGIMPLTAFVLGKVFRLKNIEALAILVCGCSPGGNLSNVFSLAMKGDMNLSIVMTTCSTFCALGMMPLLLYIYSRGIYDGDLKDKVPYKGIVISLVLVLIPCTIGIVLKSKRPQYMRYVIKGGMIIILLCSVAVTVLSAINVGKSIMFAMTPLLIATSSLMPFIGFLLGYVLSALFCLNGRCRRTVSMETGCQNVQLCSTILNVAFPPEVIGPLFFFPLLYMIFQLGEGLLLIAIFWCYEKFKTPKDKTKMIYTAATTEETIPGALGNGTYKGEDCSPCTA
Assay: Screening taurocholate uptake assay (96-well, [14C]taurocholate, 10 µM drug)
Conditions: Prestwick library screen, 10 µM drug; B-score of taurocholate uptake
Structures can show the parent of a compound that is named as a salt.
Attribute: B-score functional assay
quantity_name: B-score functional assay

compound: C=C(CC)C(=O)c1ccc(OCC(=O)O)c(Cl)c1Cl [Ethacrynic acid]
quantity_name: B-score functional assay
observed_measurement: 0.935
//
compound: CC1CC(OC(=O)C(O)c2ccccc2)CC(C)(C)N1C (stereo not shown) [Eucatropine hydrochloride]
quantity_name: B-score functional assay
observed_measurement: 0.117
//
compound: NC[C@@H]1O[C@H](O[C@H]2[C@@H](O)[C@H](O[C@@H]3[C@@H](O)[C@H](N)C[C@H](N)[C@H]3O[C@H]3O[C@H](CN)[C@@H](O)[C@H](O)[C@H]3N)O[C@@H]2CO)[C@H](N)[C@@H](O)[C@@H]1O.O=S(=O)(O)O [Neomycin sulfate]
quantity_name: B-score functional assay
observed_measurement: 0.497
//
compound: O=C(CCCN1CCN(c2ccccn2)CC1)c1ccc(F)cc1 [Azaperone]
quantity_name: B-score functional assay
observed_measurement: 0.852
//
compound: O=C(O)CNC(=O)C(CS)Cc1ccccc1 (stereo not shown) [Thiorphan]
quantity_name: B-score functional assay
observed_measurement: 0.09
//
compound: Cc1onc(-c2ccccc2)c1C(=O)N[C@@H]1C(=O)N2[C@@H]1SC(C)(C)[C@@H]2C(=O)[O-].[Na+] [Oxacillin sodium]
quantity_name: B-score functional assay
observed_measurement: 0.869
//
compound: N=C(N)N1CCc2ccccc2C1 [Debrisoquin sulfate]
quantity_name: B-score functional assay
observed_measurement: 2.382

###

Target: human NTCP (Homo sapiens)
Test: Screening fluorescent competitive Myrcludex B-FITC binding assay (96-well, 10 µM drug)
Settings: Prestwick library screen, 10 µM drug; B-score of Myrcludex B-FITC binding
Counter-ions that a name gives are not always drawn.
Attribute: B-score binding assay

compound: [H]/N=C(/NCCCCC)N/N=C/c1c[nH]c2ccc(OC)cc12 [Tegaserod maleate]
B-score binding assay: 0.318
--
compound: Cc1cn([C@H]2C[C@H](N=[N+]=[N-])[C@@H](CO)O2)c(=O)[nH]c1=O
B-score binding assay: 0.429
--
compound: Nc1ncn([C@@H]2O[C@H](CO)[C@@H](O)[C@H]2O)c(=O)n1
B-score binding assay: 1.257
--
compound: CC(NCCc1ccc(O)cc1)C(O)c1ccc(O)cc1 (stereo not shown) [Ritodrine hydrochloride]
B-score binding assay: 1.66

###

Target: human NTCP (Homo sapiens)
Experiment: Screening taurocholate uptake assay (96-well, [14C]taurocholate, 10 µM drug)
Conditions: screening taurocholate uptake, 10 µM drug
Counter-ions that a name gives are not always drawn.
Rule: measured B-score functional assay below -0.6 gets Criterion met; anything equal to or greater than -0.6 gets Criterion not met.

molecule: Cc1[nH]cnc1CN1CCc2c(c3ccccc3n2C)C1=O [Alosetron hydrochloride]
class_label: Criterion not met
//
molecule: CC(C)(C)NCC(O)c1cc(Cl)c(N)c(Cl)c1 (centres unmarked) [Clenbuterol hydrochloride]
class_label: Criterion met
//
molecule: CCOC(=O)O[C@]1(C(=O)COC(=O)CC)CC[C@H]2[C@@H]3CCC4=CC(=O)C=C[C@]4(C)[C@H]3[C@@H](O)C[C@@]21C [Prednicarbate]
class_label: Criterion met
//
molecule: CS(=O)(=O)c1ccc([C@@H](O)[C@@H](CO)NC(=O)C(Cl)Cl)cc1
class_label: Criterion not met
//
molecule: CCCC1O[C@@H]2C[C@H]3[C@@H]4CCC5=CC(=O)C=C[C@]5(C)[C@H]4[C@@H](O)C[C@]3(C)[C@]2(C(=O)CO)O1 (some centres unmarked) [Budesonide]
class_label: Criterion met
//
molecule: O=C1CCc2ccc(OCCCCN3CCN(c4cccc(Cl)c4Cl)CC3)cc2N1
class_label: Criterion not met
//
molecule: C[C@H](Cc1cc2c(c(C(N)=O)c1)N(CCCO)CC2)NCCOc1ccccc1OCC(F)(F)F
class_label: Criterion not met
//
molecule: CC1Cc2ccccc2N1NC(=O)c1ccc(Cl)c(S(N)(=O)=O)c1 (centres unmarked) [Indapamide]
class_label: Criterion not met

Recorded values, source paper PMC5681660.
